Tested on: HL-60(TB) leukemia
Test: NCI-60 one-dose screen, 48 h
Setup conditions: 10 µM unless noted
This is part of a sample that, as a whole, favours compounds with a hit. Of some 83,000 tested, about 20% had one in any assay. Calls of active or inactive are those of the source. Rule for the calls: active = growth percent below 10; inactive = the rest.
Outcome (select one): active, inactive

Asked: Assay result, entry CSc1nc(N)c(CNC(C)c2ccccc2)c(=O)n1C (centres undefined) — outcome?
Given back: inactive

Asked: Assay result, entry "Cc1c(-c2noc(-c3ccc([N+](=O)[O-])cc3)n2)no[n+]1[O-]" — outcome?
Given back: inactive

Asked: Assay result, entry "CN(C)CCCOc1c(Br)cc(/C=C/C(=O)N(C)CCc2cc(Br)c(OCCCN(C)C)c(Br)c2)cc1Br" — outcome?
Given back: inactive

Asked: Assay result, entry "C=C(C)[C@@H]1CC[C@]2(C(=O)NCCNCCNC(=O)OC(C)(C)C)CC[C@]3(C)[C@H](CC[C@@H]4[C@@]5(C)CCC(=O)C(C)(C)[C@@H]5CC[C@]43C)[C@@H]12" — outcome?
Given back: active

Asked: Assay result, entry "COc1ccc(C(=O)COC(=O)[C@H](C[Se][Se]C[C@H](NC(=O)c2ccc(Br)cc2F)C(=O)OCC(=O)c2ccc(OC)cc2)NC(=O)c2ccc(Br)cc2F)cc1" — outcome?
Given back: active

Asked: Assay result, entry "CCCCn1c(-c2ccc(F)cc2)nc2cc(OC)c(OC)cc2c1=O" — outcome?
Given back: inactive

Asked: Assay result, entry CCCCN(CCCC)CC(O)CN(CC)CC (centres undefined) — outcome?
Given back: inactive

Asked: Assay result, entry "Cc1ccc(S(=O)(=O)Nc2ccc(Cl)cc2)cc1" — outcome?
Given back: inactive

Asked: Assay result, entry "c1ccc(-c2nnn(-c3ccccc3)n2)cc1" — outcome?
Given back: inactive

---

Would you kindly list growth for each of these compounds?
Tested on: HL-60(TB) leukemia
Test: NCI-60 one-dose screen, 48 h (100 = growth as untreated, 0 = no growth, -100 = all killed)
Setup conditions: 10 µM unless noted
Experimental: Growth inhibition of the HL-60(TB) human tumor cell line is measured as a screen for anti-cancer activity. Cells are grown in 96 well plates and exposed to the test compound for 48 hours. Compounds are tested at a single concentration, which is 10^-5 M for most compounds. The reported endpoint is percent growth (GI% or GIPRCNT), where numbers from 0 - 100% represent growth inhibition, and numbers from -100% - 0 represent cell death. For example, a value of 40 represents 60% growth inhibition. […]
This is part of a sample that, as a whole, favours compounds with a hit. Of some 83,000 tested, about 20% had one in any assay.
Provide only the numeric value, understood in %.

Asked: Supply recorded growth for "O=S(=O)(NCCCNc1nccc(-c2c(-c3ccc(F)c(O)c3)nc3sccn23)n1)c1ccccc1" here.
Given back: 69.8

Asked: Supply recorded growth for "O=C(Nc1cccc(-n2ccc3c(NC(=O)c4ccccc4)nccc32)c1)c1cccc(C(F)(F)F)c1" here.
Given back: 0.531

Asked: Supply recorded growth for "COc1cccc(-c2nnc(COc3ccc(-c4nc5ccc(C)cc5[nH]4)cc3OC)o2)c1" here.
Given back: -56.2

Asked: Supply recorded growth for "Cc1cc(=O)n(Nc2ccccc2)c(O)c1C#N" here.
Given back: 90.3

Asked: Supply recorded growth for "COc1ccc(-c2nc(SCC(=O)Nc3nc(-c4ccccc4)cs3)[nH]c(=O)c2C#N)cc1" here.
Given back: 92

Asked: Supply recorded growth for "CCOC(=O)c1nc2c3ccccc3ccn2c1C(=O)OCC" here.
Given back: 97.1

Asked: Supply recorded growth for "Cc1oc(-c2ccc(Cl)cc2)nc1/C=C/C(=O)c1ccccc1" here.
Given back: 97.1

Asked: Supply recorded growth for "COc1cc(OC)c2sc(-c3ccc(-n4cncc4-c4ccc(OC)c(OC)c4)cc3)nc2c1" here.
Given back: 58.5

Asked: Supply recorded growth for "N#C/C(=C\c1ccc([N+](=O)[O-])s1)c1nc2cc(Cl)ccc2s1" here.
Given back: 44.8

Asked: Supply recorded growth for "CCC(=C(c1ccc(OCCN2CCCC2)cc1)c1ccc(OCCN2CCCC2)cc1)c1ccc(Cl)cc1" here.
Given back: -52.5

Asked: Supply recorded growth for "Cc1cc(CCNC=O)c(C)c2c1sc1ccccc12" here.
Given back: 91.9

Asked: Supply recorded growth for "C[C@@H](Oc1cc(C(=O)Nc2ccc(C(=O)N3CCN(C)CC3)cc2)nnc1N)c1c(Cl)ccc(F)c1Cl" here.
Given back: 88.3

Asked: Supply recorded growth for "NC(N)=NC1CCCCC1" here.
Given back: 94.4

Asked: Supply recorded growth for "Cc1cc(N2CCCCC2)nc(N(CCCNc2ccnc3cc(Cl)ccc23)Cc2ccco2)n1" here.
Given back: -43.6

Asked: Supply recorded growth for "CS(=O)(=O)Nc1cc(-c2ccc3ncnc(Nc4ccc5c(cnn5Cc5ccccn5)c4)c3c2)cnc1Cl" here.
Given back: 56.5

Asked: Supply recorded growth for "O=C(/C=C/c1ccc(C(F)(F)F)cc1)c1ccc(Nc2nc(NCCO)nc(N3CCOCC3)n2)cc1" here.
Given back: 15.4

Asked: Supply recorded growth for "COc1cc(NC(=O)CCl)ccc(=O)c1" here.
Given back: 77.1

Asked: Supply recorded growth for "COc1ccc(/C=N\NC(=O)CN2CCN(c3cc4c(cc3F)c(=O)c(C(=O)N/N=C/c3ccc(OC)c(OC)c3)cn4C3CC3)CC2)cc1OC" here.
Given back: 1.29

Asked: Supply recorded growth for "COc1nccnn1" here.
Given back: 185

Asked: Supply recorded growth for "Cn1cc(-c2nonc2-c2c[nH]c3ccc(Br)cc23)c2cc(Br)ccc21" here.
Given back: 54

Asked: Supply recorded growth for "CC[N+](CC)=c1cc2oc3cc(N(C)C)ccc3nc-2cc1C" here.
Given back: -8.38

---

System: HL-60(TB) leukemia
Test: NCI-60 one-dose screen, 48 h (100 = growth as untreated, 0 = no growth, -100 = all killed)
Setup conditions: 10 µM unless noted
Compounds without any hit were thinned out: in the full panel of roughly 83,000, 20% have a hit.
Would you kindly list growth for each of these molecules?
Provide only the numeric value, understood in %.

Asked: Supply recorded growth for "COc1cc(CNC(=O)CCCCC[P+](c2ccccc2)(c2ccccc2)c2ccccc2)c(OC)c2c1OCO2" here.
Given back: -2.75

Asked: Supply recorded growth for "CC1(C)NCCC[C@]2(C)[C@H]3CC[C@@H]4[C@H]5[C@H](C(=O)/C=C/c6ccccn6)CC[C@]5(CO)CC[C@@]4(C)[C@]3(C)CC[C@@H]12" here.
Given back: -31.8

Asked: Supply recorded growth for "CCN(CC)CCCCCCNc1cc(OC)cc2cccnc12" here.
Given back: -57.3

Asked: Supply recorded growth for Nc1c2c(nc3ccc(Br)cc13)CC(c1ccccc1)CC2=O (stereo unspecified) here.
Given back: 10.7

Asked: Supply recorded growth for "N=C(N)c1ccc(-c2ccc(-c3ccc(Cl)cc3)s2)nc1" here.
Given back: -39.1

Asked: Supply recorded growth for "O=C(Cc1ccccc1[N+](=O)[O-])c1ccc2c(c1)OCO2" here.
Given back: 99.7

---

Tested on: HL-60(TB) leukemia
Test: NCI-60 one-dose screen, 48 h (100 = growth as untreated, 0 = no growth, -100 = all killed)
Setup conditions: 10 µM unless noted
This is part of a sample that, as a whole, favours compounds with a hit. Of some 83,000 tested, about 20% had one in any assay.
growth less than 20% is TRUE; growth greater than or equal to 20% is FALSE.

Asked: Consider the compound "CCOC(=O)c1sc(Nc2ccc(Cl)cc2)nc1C" . Is its growth strictly less than 20%?
Given back: FALSE

Asked: Consider the compound "COc1cc(/C=C\c2cc(/C=C\c3ccc(O)c(OC)c3)n(C(=O)CNc3ccccc3OC)n2)ccc1O" . Is its growth strictly less than 20%?
Given back: FALSE

Asked: Consider the compound "CN(C)CCC(=O)Nc1ccc(-n2cc(-c3cccc(NC(=S)Nc4cccc(-c5cn(-c6ccc(NC(=O)CCN(C)C)cc6)nn5)c4)c3)nn2)cc1" . Is its growth strictly less than 20%?
Given back: FALSE

Asked: Consider the compound "C=C(CBr)[C@@H]1CC[C@]2(COC(C)=O)CC[C@]3(C)[C@H](CC[C@@H]4[C@@]5(C)CCCNC(C)(C)[C@@H]5CC[C@]43C)[C@@H]12" . Is its growth strictly less than 20%?
Given back: TRUE

Asked: Consider the compound "Cn1cnc2c(F)c(Nc3ccc(Br)cc3F)c(C(=O)NOCCO)cc21" . Is its growth strictly less than 20%?
Given back: TRUE

Asked: Consider the compound "CCc1ccc(Oc2cn[nH]c2-c2ccc(OCCc3ccc(F)cc3)cc2O)cc1" . Is its growth strictly less than 20%?
Given back: FALSE

Asked: Consider the compound "Cn1cc(-c2nc(-c3c[nH]c4ccncc34)cs2)c2ccccc21" . Is its growth strictly less than 20%?
Given back: TRUE

Asked: Consider the compound "Cc1sc2c(c1C)c(=O)nc1c(-c3nc4ccccc4s3)n[nH]n12" . Is its growth strictly less than 20%?
Given back: FALSE

Asked: Consider the compound Oc1c(Cl)cc(Cl)cc1C=NCC1CCC(CN=Cc2cc(Cl)cc(Cl)c2O)CC1 (stereo unspecified) . Is its growth strictly less than 20%?
Given back: FALSE

Asked: Consider the compound "Cc1cc(N2CCOCC2)nc(N2CCOCC2)n1" . Is its growth strictly less than 20%?
Given back: FALSE

Asked: Consider the compound "Cc1ccc(-n2c(=S)[nH]c3sc4c(c3c2=O)CCC(=O)C4)cc1" . Is its growth strictly less than 20%?
Given back: TRUE

Asked: Consider the compound "CC(=O)c1ccc2c(c1)c1ccccc1n2C" . Is its growth strictly less than 20%?
Given back: FALSE

Asked: Consider the compound "COC(=O)/C=C/c1cc(O)c2oc(-c3ccc(O)c(O)c3)c(C(=O)OC)c2c1" . Is its growth strictly less than 20%?
Given back: TRUE

Asked: Consider the compound "COCCNC(=O)c1ccc(-c2nc3ccc4[nH]ncc4c3c3c2CCCC3)cc1" . Is its growth strictly less than 20%?
Given back: TRUE

Asked: Consider the compound "COc1cc(NCCCCCN)c2ncccc2c1" . Is its growth strictly less than 20%?
Given back: FALSE

Asked: Consider the compound "O=C1CCc2c(sc3[nH]c(=S)n(-c4ccc(OC(F)(F)F)cc4)c(=O)c23)C1" . Is its growth strictly less than 20%?
Given back: FALSE

Asked: Consider the compound "Cc1cccc(CO)c1" . Is its growth strictly less than 20%?
Given back: FALSE

Asked: Consider the compound "O=C1CC(=O)N(C(=O)c2nn(-c3ccc(Cl)cc3)cc2O)N1" . Is its growth strictly less than 20%?
Given back: TRUE

Asked: Consider the compound "COc1ccc(C2=Nc3c/c(=C\c4c(O)[nH]c5ccc(Cl)cc45)ccc3=N2)cc1" . Is its growth strictly less than 20%?
Given back: TRUE

Asked: Consider the compound "CC[C@@H](C[C@H](CCO)c1ccccc1)c1cc2ccccc2o1" . Is its growth strictly less than 20%?
Given back: FALSE

Asked: Consider the compound "C=C1c2nc3ccccc3n2C=C(c2ccc(OC)cc2)N1Cc1ccccc1" . Is its growth strictly less than 20%?
Given back: FALSE

Asked: Consider the compound "CC(C)CCNC(=O)Cn1cccc(NC(=O)OCc2ccccc2)c1=O" . Is its growth strictly less than 20%?
Given back: FALSE

Asked: Consider the compound "CC(C)NCCCNC1=C(Cl)C(=O)c2ccccc2C1=O" . Is its growth strictly less than 20%?
Given back: TRUE

Asked: Consider the compound "COc1cccc(NC(=O)[C@H](C(C)C)n2c(=O)[nH]c3ccccc3c2=O)c1" . Is its growth strictly less than 20%?
Given back: FALSE

Asked: Consider the compound "O=C(Cn1c(=O)sc2nc3ccccc3nc21)Nc1ncc(Cc2cccc(Cl)c2Cl)s1" . Is its growth strictly less than 20%?
Given back: FALSE

Asked: Consider the compound CO[C@H](C(=O)[C@@H](O)[C@@H](C)O)[C@@H]1Cc2cc3cc(OC4CC(OC5CC(O)C(O)C(C)O5)C(O)C(C)O4)c(C)c(O)c3c(O)c2C(=O)[C@H]1OC1CC(OC2CC(OC3CC(C)(O)C(O)C(C)O3)C(O)C(C)O2)C(O)C(C)O1 (stereo partly specified) . Is its growth strictly less than 20%?
Given back: TRUE

Asked: Consider the compound "CN1C2CCC1CN(c1cnc(C(=O)Nc3cc(F)cc4cccnc34)cn1)C2" . Is its growth strictly less than 20%?
Given back: TRUE

Asked: Consider the compound "O=S(=O)(CC(O)(c1ccccc1)c1ccccc1)CC(O)(c1ccccc1)c1ccccc1" . Is its growth strictly less than 20%?
Given back: FALSE

Asked: Consider the compound "N#C/C(=C\c1ccc2c(c1)OCO2)n1nnc2cc(F)c(F)cc21" . Is its growth strictly less than 20%?
Given back: FALSE

Asked: Consider the compound ClC1(Cl)C2CCCCCCC21 (stereo unspecified) . Is its growth strictly less than 20%?
Given back: FALSE

Asked: Consider the compound "CC/C=C\C[C@H](O)C/C=C1/C(=O)C=C[C@@H]1C/C=C\CCCC(=O)N(C)C" . Is its growth strictly less than 20%?
Given back: TRUE

Asked: Consider the compound "COc1ccc(-c2nn(-c3cccc(Cl)c3)cc2-c2c(C#N)c(=O)n3[nH]c(-c4ccccc4)nc3c2C#N)cc1" . Is its growth strictly less than 20%?
Given back: FALSE

Asked: Consider the compound "Cc1ccc(S(=O)(=O)N2C/C(=C\c3cc(F)cc(F)c3)C(=O)/C(=C/c3cc(F)cc(F)c3)C2)cc1" . Is its growth strictly less than 20%?
Given back: TRUE

Asked: Consider the compound "Cc1ccc(S(=O)(=O)Oc2ccc(Br)cc2Br)cc1" . Is its growth strictly less than 20%?
Given back: FALSE

Asked: Consider the compound "O=c1scc(-c2ccc(C(F)(F)F)cc2)s1" . Is its growth strictly less than 20%?
Given back: FALSE

Asked: Consider the compound "Cn1c(O)c(C=NCCN=Cc2c(O)n(C)c(=O)n(C)c2=O)c(=O)n(C)c1=O" . Is its growth strictly less than 20%?
Given back: TRUE

Asked: Consider the compound "O=Cc1ccc([N+](=O)[O-])s1" . Is its growth strictly less than 20%?
Given back: FALSE

Asked: Consider the compound "Oc1cccc(Nc2nccc(-c3ccc4ccccc4c3)n2)c1" . Is its growth strictly less than 20%?
Given back: TRUE

Asked: Consider the compound "COc1ccc(CNC(=O)COc2ccc(/C=N/Nc3nc4ccccc4s3)cc2)cc1" . Is its growth strictly less than 20%?
Given back: FALSE

Asked: Consider the compound "C#CCOc1ccc2ncnc(Nc3ccc(NC(=O)CCl)cc3)c2c1" . Is its growth strictly less than 20%?
Given back: TRUE

Asked: Consider the compound "O=C1NC(c2ccc(Cl)c(Cl)c2)=C/C1=C\c1ccccc1" . Is its growth strictly less than 20%?
Given back: FALSE
